Experiment: Photostationary state (PSS) and lambda max under simulated sunlight (solar simulator)
Type: physicochemical
Settings: head of Table 3; absorbance at photostationary state; 2×10^−5 M solution
Description: The term “photostationary state” (PSS) refers to an equilibrium state of a compound or material where the rate of the ring closing (forward) reaction is equal to the rate of the ring-opening reaction, when irradiated with light in a given region of the spectrum. […] For example, in a ring-closed (dark) state, the magnitude of the maximum absorbance in the visible range may change with the light source (FIG. 1). […]
// reported PSS (Steady State) for each item listed
Answer with a number only.

{"SMILES_STRUCTURE": "COCCOc1cc2oc(-c3ccc(C(C)(C)C)cc3)c(C3=C(c4cc(-c5ccc(C(C)(C)C)s5)sc4-c4ccc(C(C)(C)C)s4)C(F)(F)C(F)(F)C3(F)F)c2cc1OCCOC", "PSS (Steady State)": 0.427}

// recorded PSS (Steady State) for CCOC(=O)CCCOc1cc2oc(-c3ccc(C(C)(C)C)cc3)c(C3=C(c4cc(-c5ccc(C(C)(C)C)s5)sc4-c4sc(C(C)(C)C)cc4C)C(F)(F)C(F)(F)C3(F)F)c2cc1OCCCC(=O)OCC : 0.408

// recorded PSS (Steady State) for CCOC(=O)CCCOc1cc2oc(-c3ccc(C(C)(C)C)cc3)c(C3=C(c4cc(-c5sc(C(C)(C)C)cc5C)sc4-c4sc(C(C)(C)C)cc4C)C(F)(F)C(F)(F)C3(F)F)c2cc1OCCCC(=O)OCC : 0.342

// recorded PSS (Steady State) for CC(=O)Oc1cc2oc(-c3ccc(C(C)(C)C)cc3)c(C3=C(c4cc(-c5ccc(C(C)(C)C)s5)sc4-c4ccc(C(C)(C)C)s4)C(F)(F)C(F)(F)C3(F)F)c2cc1OC(C)=O : 0.32

// recorded PSS (Steady State) for COc1cc2oc(-c3ccc(C(C)(C)C)cc3)c(C3=C(c4cc(-c5ccc(C(C)(C)C)s5)sc4-c4ccc(C(C)(C)C)s4)C(F)(F)C(F)(F)C3(F)F)c2cc1OC : 0.417

// recorded PSS (Steady State) for COc1ccc2oc(-c3ccc(C(C)(C)C)cc3)c(C3=C(c4cc(-c5ccc(C(C)(C)C)s5)sc4-c4ccc(C(C)(C)C)s4)C(F)(F)C(F)(F)C3(F)F)c2c1 : 0.337

// recorded PSS (Steady State) for CC(C)(C)c1ccc(-c2oc3ccccc3c2C2=C(c3cc(-c4ccc(C(C)(C)C)s4)sc3-c3ccc(C(C)(C)C)s3)C(F)(F)C(F)(F)C2(F)F)cc1 : 0.315

// recorded PSS (Steady State) for COc1cc2oc(-c3ccc(C(C)(C)C)cc3)c(C3=C(c4cc(-c5ccc(C(C)(C)C)s5)sc4-c4sc(C(C)(C)C)cc4C)C(F)(F)C(F)(F)C3(F)F)c2cc1OC : 0.351

// recorded PSS (Steady State) for COc1ccc2c(C3=C(c4cc(-c5ccc(C(C)(C)C)s5)sc4-c4ccc(C(C)(C)C)s4)C(F)(F)C(F)(F)C3(F)F)c(-c3ccc(C(C)(C)C)cc3)oc2c1 : 0.255

// recorded PSS (Steady State) for CCOC(=O)CCCOc1cc2oc(-c3ccc(C(C)(C)C)cc3)c(C3=C(c4cc(-c5ccc(C(C)(C)C)s5)sc4-c4ccc(C(C)(C)C)s4)C(F)(F)C(F)(F)C3(F)F)c2cc1OCCCC(=O)OCC : 0.422

---

assay: Oxidation potential of ring-closed and ring-open isomers; type: physicochemical; conditions: ring-open isomer; no unit printed in table (V relative to Ag/AgCl)
// reported RO [O] (oxidation potential of ring-open isomer) for each item listed
Answer with a number only.

{"MOLECULE": "COc1cc2oc(-c3ccc(C(C)(C)C)cc3)c(C3=C(c4cc(-c5ccc(C(C)(C)C)s5)sc4-c4sc(C(C)(C)C)cc4C)C(F)(F)C(F)(F)C3(F)F)c2cc1OC [Chromophore S378]", "RECORDED_VALUE": 1.36}
{"MOLECULE": "COc1cc2oc(-c3ccc(C(C)(C)C)cc3)c(C3=C(c4cc(-c5cc6c(s5)C(C)(C)CCC6(C)C)sc4-c4cc5c(s4)C(C)(C)CCC5(C)C)C(F)(F)C(F)(F)C3(F)F)c2cc1OC", "RECORDED_VALUE": 1.29}
{"MOLECULE": "CC(=O)Oc1cc2oc(-c3ccc(C(C)(C)C)cc3)c(C3=C(c4cc(-c5cc(C(C)(C)C)cs5)sc4-c4cc(C(C)(C)C)cs4)C(F)(F)C(F)(F)C3(F)F)c2cc1OC(C)=O [Chromophore S396]", "RECORDED_VALUE": 1.48}
{"MOLECULE": "COc1ccc2oc(-c3ccc(C(C)(C)C)cc3)c(C3=C(c4cc(-c5cc6c(s5)C(C)(C)CCC6(C)C)sc4-c4cc5c(s4)C(C)(C)CCC5(C)C)C(F)(F)C(F)(F)C3(F)F)c2c1 [Chromophore S400]", "RECORDED_VALUE": 1.29}
{"MOLECULE": "CC(C)(C)c1ccc(-c2oc3cc(OCCN4C(=O)CCC4=O)c(OCCN4C(=O)CCC4=O)cc3c2C2=C(c3cc(-c4cc(C(C)(C)C)cs4)sc3-c3cc(C(C)(C)C)cs3)C(F)(F)C(F)(F)C2(F)F)cc1", "RECORDED_VALUE": 1.42}

// recorded RO [O] (oxidation potential of ring-open isomer) for CCOC(=O)CCCOc1cc2oc(-c3ccc(C(C)(C)C)cc3)c(C3=C(c4cc(-c5cc(C(C)(C)C)cs5)sc4-c4cc(C(C)(C)C)cs4)C(F)(F)C(F)(F)C3(F)F)c2cc1OCCCC(=O)OCC [Chromophore S386] : 1.4

// recorded RO [O] (oxidation potential of ring-open isomer) for CCOC(=O)CCCOc1cc2oc(-c3ccc(C(C)(C)C)cc3)c(C3=C(c4cc(-c5cc6c(s5)C(C)(C)CCC6(C)C)sc4-c4cc5c(s4)C(C)(C)CCC5(C)C)C(F)(F)C(F)(F)C3(F)F)c2cc1OCCCC(=O)OCC [Chromophore S387] : 1.29

// recorded RO [O] (oxidation potential of ring-open isomer) for COCCCOc1cc2oc(-c3ccc(C(C)(C)C)cc3)c(C3=C(c4cc(-c5cc6c(s5)C(C)(C)CCC6(C)C)sc4-c4cc5c(s4)C(C)(C)CCC5(C)C)C(F)(F)C(F)(F)C3(F)F)c2cc1OCCCOC [Chromophore S388] : 1.28

// recorded RO [O] (oxidation potential of ring-open isomer) for CCOC(=O)CCCOc1cc2oc(-c3ccc(C(C)(C)C)cc3)c(C3=C(c4cc(-c5ccc(C(C)(C)C)s5)sc4-c4ccc(C(C)(C)C)s4)C(F)(F)C(F)(F)C3(F)F)c2cc1OCCCC(=O)OCC [Chromophore S374] : 1.35

// recorded RO [O] (oxidation potential of ring-open isomer) for CCOC(=O)CCCOc1cc2oc(-c3ccc(C(C)(C)C)cc3)c(C3=C(c4cc(-c5ccc(C(C)(C)C)s5)sc4-c4sc(C(C)(C)C)cc4C)C(F)(F)C(F)(F)C3(F)F)c2cc1OCCCC(=O)OCC [Chromophore S383] : 1.36

// recorded RO [O] (oxidation potential of ring-open isomer) for COc1cc2oc(-c3ccc(C(C)(C)C)cc3)c(C3=C(c4cc(-c5cc(C(C)(C)C)cs5)sc4-c4cc(C(C)(C)C)cs4)C(F)(F)C(F)(F)C3(F)F)c2cc1OC [Chromophore S377] : 1.42

// recorded RO [O] (oxidation potential of ring-open isomer) for COc1cc2oc(-c3ccc(C(C)(C)C)cc3)c(C3=C(c4cc(-c5cccs5)sc4-c4cccs4)C(F)(F)C(F)(F)C3(F)F)c2cc1OC [Chromophore S193] : 1.41

// recorded RO [O] (oxidation potential of ring-open isomer) for COCCCOc1cc2oc(-c3ccc(C(C)(C)C)cc3)c(C3=C(c4cc(-c5cc(C(C)(C)C)cs5)sc4-c4cc(C(C)(C)C)cs4)C(F)(F)C(F)(F)C3(F)F)c2cc1OCCCOC : 1.39

// recorded RO [O] (oxidation potential of ring-open isomer) for COc1ccc2oc(-c3ccc(C(C)(C)C)cc3)c(C3=C(c4cc(-c5ccc(C(C)(C)C)s5)sc4-c4ccc(C(C)(C)C)s4)C(F)(F)C(F)(F)C3(F)F)c2c1 [Chromophore S344] : 1.36

// recorded RO [O] (oxidation potential of ring-open isomer) for COc1cc2oc(-c3ccc(C(C)(C)C)cc3)c(C3=C(c4cc(-c5ccc(C(C)(C)C)s5)sc4-c4ccc(C(C)(C)C)s4)C(F)(F)C(F)(F)C3(F)F)c2cc1OC [Chromophore S340] : 1.35

// recorded RO [O] (oxidation potential of ring-open isomer) for COc1ccc2c(C3=C(c4cc(-c5ccc(C(C)(C)C)s5)sc4-c4ccc(C(C)(C)C)s4)C(F)(F)C(F)(F)C3(F)F)c(-c3ccc(C(C)(C)C)cc3)oc2c1 : 1.38

// recorded RO [O] (oxidation potential of ring-open isomer) for COc1cc2oc(-c3ccc(C(C)(C)C)cc3)c(C3=C(c4cc(-c5cc6c(s5)C(C)(C)CCCC6(C)C)sc4-c4cc5c(s4)C(C)(C)CCCC5(C)C)C(F)(F)C(F)(F)C3(F)F)c2cc1OC [Chromophore S405] : 1.28

// recorded RO [O] (oxidation potential of ring-open isomer) for COCCOc1cc2oc(-c3ccc(C(C)(C)C)cc3)c(C3=C(c4cc(-c5ccc(C(C)(C)C)s5)sc4-c4ccc(C(C)(C)C)s4)C(F)(F)C(F)(F)C3(F)F)c2cc1OCCOC [Chromophore S364] : 1.32

// recorded RO [O] (oxidation potential of ring-open isomer) for CC(C)(C)c1ccc(-c2oc3cc(OCCN4CCOC4=O)c(OCCN4CCOC4=O)cc3c2C2=C(c3cc(-c4cc5c(s4)C(C)(C)CCC5(C)C)sc3-c3cc4c(s3)C(C)(C)CCC4(C)C)C(F)(F)C(F)(F)C2(F)F)cc1 [Chromophore S390] : 1.29
